meta.source: patent US10538498B2

target: human recombinant HDAC6 (Homo sapiens); construct: purchased Calbiochem 382180; test: HDAC6 enzyme activity inhibition assay (HDAC Fluorimetric Drug Discovery Kit); assay type: biochemical; details: HDAC1 vs HDAC6
Exercise: for every item that follows, state its recorded HDAC6 selectivity (fold).
Enter your answer as a number in fold; do not include the unit.

Input: Look up HDAC6 selectivity (fold) for this molecule: CN1Cc2ccc(N(Cc3ccc(-c4nnc(C(F)F)o4)cc3)S(C)(=O)=O)cc2C1 [Compound 11729]
Output: 56

Input: HDAC6 selectivity (fold) for CS(=O)(=O)N(Cc1ccc(-c2nnc(C(F)F)o2)cc1F)c1ccc2ncoc2c1 [Compound 11774] ?
Output: 1503

Input: For CS(=O)(=O)N(Cc1ccc(-c2noc(C(F)(F)F)n2)cc1)Cc1ccc(-c2nnc(C(F)F)o2)cc1F [Compound 11389] , what is its reported HDAC6 selectivity (fold)?
Output: 104

Input: Look up HDAC6 selectivity (fold) for this molecule: CS(=O)(=O)N(Cc1ccc(-c2nnc(C(F)F)o2)cn1)c1ccc2c(c1)OCO2 [Compound 11345]
Output: 3571

Input: Return reported HDAC6 selectivity (fold); argument: CS(=O)(=O)N(Cc1ccc(-c2nnc(C(F)(F)F)o2)cc1F)c1cccc(Br)c1 [Compound 11196]
Output: 441

Input: // lookup HDAC6 selectivity (fold) for O=S(=O)(CCn1cncn1)N(Cc1ccc(-c2nnc(C(F)F)o2)cc1)c1ccccc1 [Compound 11809]
Output: 3222

Input: I would be grateful if you could share the reported HDAC6 selectivity (fold) for O=C(C1CC1)N1CC(N2CCC(S(=O)(=O)N(Cc3ccc(-c4nnc(C(F)F)o4)cn3)c3cccc(Cl)c3)CC2)C1 [Compound 11784] .
Output: 3154

Input: Reported HDAC6 selectivity (fold) for CCS(=O)(=O)N(Cc1ccc(-c2nnc(C(F)F)o2)cc1F)c1cccc(CN2CCN(C)CC2)c1 [Compound 11405] : what is it?
Output: 1493

Input: Quick check: HDAC6 selectivity (fold) of CC(=O)N1CC(N2CCC(S(=O)(=O)N(Cc3ccc(-c4nnc(C(F)F)o4)cn3)c3cccc(C)c3)CC2)C1 [Compound 11838] ?
Output: 2241

Input: Endpoint output: HDAC6 selectivity (fold) of CS(=O)(=O)N(Cc1ccc(-c2nnc(C(F)F)o2)cc1)c1cccnc1 [Compound 11628] . Value?
Output: 2083

Input: Need HDAC6 selectivity (fold) of O=S(=O)(CCN1CCC1)N(Cc1ccc(-c2nnc(C(F)F)o2)cc1)c1ccccc1 [Compound 11738] , thanks.
Output: 1466

Input: Fill blank: measured HDAC6 selectivity (fold) of the molecule CN1CCC(S(=O)(=O)N(Cc2ccc(-c3nnc(C(F)F)o3)cc2)c2ccccc2)CC1 [Compound 11637] is ____.
Output: 3349

Input: Would you mind telling me what HDAC6 selectivity (fold) value was observed for O=S(=O)(C1CCN([C@H]2CC[C@@H](F)CC2)CC1)N(Cc1ccc(-c2nnc(C(F)F)o2)cn1)c1cccc(Cl)c1 [Compound 11728] ?
Output: 453

Input: For the molecule Cc1cccc(N(Cc2ccc(-c3nnc(C(F)F)o3)cc2)S(=O)(=O)C2CCN(C3CCOCC3)CC2)c1 [Compound 11699] , what HDAC6 selectivity (fold) is on record?
Output: 776

Input: Fill in: HDAC6 selectivity (fold) of CS(=O)(=O)N(Cc1ccc(-c2nnc(C(F)F)o2)cc1F)c1ccc2c(c1)OCO2 [Compound 11227] is ___
Output: 4348

----------
molecular target: human recombinant HDAC6 (Homo sapiens, UniProt Q9UBN7); construct: purchased Calbiochem 382180; experiment: HDAC6 enzyme activity inhibition assay (HDAC Fluorimetric Drug Discovery Kit); assay type: biochemical; conditions: HDAC1 vs HDAC6
Sequence (Q9UBN7 whole entry): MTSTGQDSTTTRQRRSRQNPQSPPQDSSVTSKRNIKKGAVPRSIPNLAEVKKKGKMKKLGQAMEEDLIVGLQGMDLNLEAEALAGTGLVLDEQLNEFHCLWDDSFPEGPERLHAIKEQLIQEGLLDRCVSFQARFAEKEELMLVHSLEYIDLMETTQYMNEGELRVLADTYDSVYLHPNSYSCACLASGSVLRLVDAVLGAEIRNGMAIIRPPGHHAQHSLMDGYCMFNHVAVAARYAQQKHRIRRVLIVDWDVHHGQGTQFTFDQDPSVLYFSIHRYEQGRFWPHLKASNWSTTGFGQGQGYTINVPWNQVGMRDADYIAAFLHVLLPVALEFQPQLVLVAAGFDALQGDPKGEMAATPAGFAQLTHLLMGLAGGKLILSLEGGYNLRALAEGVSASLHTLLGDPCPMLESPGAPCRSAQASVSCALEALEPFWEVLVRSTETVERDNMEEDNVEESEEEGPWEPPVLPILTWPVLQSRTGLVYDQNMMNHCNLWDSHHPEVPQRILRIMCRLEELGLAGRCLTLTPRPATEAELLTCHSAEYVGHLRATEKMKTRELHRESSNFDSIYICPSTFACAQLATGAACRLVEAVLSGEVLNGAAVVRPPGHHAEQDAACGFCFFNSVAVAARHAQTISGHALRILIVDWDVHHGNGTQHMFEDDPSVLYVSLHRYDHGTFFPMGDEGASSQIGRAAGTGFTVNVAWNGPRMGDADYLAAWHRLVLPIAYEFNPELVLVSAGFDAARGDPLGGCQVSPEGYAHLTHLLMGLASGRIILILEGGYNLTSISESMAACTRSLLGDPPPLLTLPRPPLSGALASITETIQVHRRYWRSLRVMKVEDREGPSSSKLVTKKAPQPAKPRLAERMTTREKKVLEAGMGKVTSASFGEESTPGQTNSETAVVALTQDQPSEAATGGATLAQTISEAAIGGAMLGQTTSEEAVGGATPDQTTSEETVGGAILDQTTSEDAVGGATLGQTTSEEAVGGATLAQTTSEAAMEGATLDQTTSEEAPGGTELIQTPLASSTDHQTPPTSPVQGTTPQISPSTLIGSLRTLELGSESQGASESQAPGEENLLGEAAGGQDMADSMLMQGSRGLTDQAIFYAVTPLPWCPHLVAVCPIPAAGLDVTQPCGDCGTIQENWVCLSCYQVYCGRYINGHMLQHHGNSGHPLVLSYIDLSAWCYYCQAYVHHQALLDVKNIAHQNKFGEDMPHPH
Note to self: values exactly at 2000 fold are Condition met. So HDAC6 selectivity (fold) at or above 2000 fold is Condition met, below is Condition not met.

Input: Quick check: does `O=S(=O)(C1CCN([C@H]2CC[C@H](F)CC2)CC1)N(Cc1ccc(-c2nnc(C(F)F)o2)cc1)c1cccc(Cl)c1` have HDAC6 selectivity (fold) greater than or equal to 2000 fold?
Output: Condition not met

Input: Hi, just wondering whether `COC(=O)CS(=O)(=O)N(Cc1ccc(-c2nnc(C(F)F)o2)cc1F)c1ccccc1` shows HDAC6 selectivity (fold) of 2000 fold or higher.
Output: Condition met

Input: Has `N#CC1CCN(CCS(=O)(=O)N(Cc2ccc(-c3nnc(C(F)F)o3)cc2)c2ccccc2)CC1` a recorded HDAC6 selectivity (fold) greater than or equal to 2000 fold?
Output: Condition not met

Input: HDAC6 selectivity (fold) >= 2000 fold for O=S(=O)(CCN1CCCC(CO)C1)N(Cc1ccc(-c2nnc(C(F)F)o2)cc1)c1ccccc1 (stereo not drawn) ?
Output: Condition met

Input: Is HDAC6 selectivity (fold) at least 2000 fold? Consider `CS(=O)(=O)N(Cc1ccc(-c2nnc(C(F)F)o2)cc1F)c1ccc2ncsc2c1`
Output: Condition met

Input: Dear colleague, could you confirm whether `CS(=O)(=O)N(Cc1ccc(-c2nnc(C(F)(F)F)o2)cc1F)c1ccc(Br)cc1` has HDAC6 selectivity (fold) at or above 2000 fold?
Output: Condition not met

Input: Quick check: does `CS(=O)(=O)N(Cc1ccccn1)Cc1ccc(-c2nnc(C(F)(F)F)o2)cc1F` have HDAC6 selectivity (fold) greater than or equal to 2000 fold?
Output: Condition not met

Input: Would you say `O=S(=O)(CCN1CCN(c2noc3ccccc23)CC1)N(Cc1ccc(-c2nnc(C(F)F)o2)cc1)c1ccccc1` shows HDAC6 selectivity (fold) at minimum 2000 fold?
Output: Condition not met

Input: Given the entry `CN1CCCN(CCS(=O)(=O)N(Cc2ccc(-c3nnc(C(F)F)o3)cc2)c2ccccc2)CC1` , answer whether its HDAC6 selectivity (fold) meets or surpasses 2000 fold.
Output: Condition not met

Input: Is HDAC6 selectivity (fold) at least 2000 fold? Consider `CCS(=O)(=O)N(Cc1ccc(-c2nnc(C(F)F)o2)cn1)c1ccc(CN2CCN(S(C)(=O)=O)CC2)cc1`
Output: Condition not met

Input: Could you tell me if the measured HDAC6 selectivity (fold) of `Cc1ccccc1N(Cc1ccc(-c2nnc(C(F)F)o2)cc1F)S(C)(=O)=O` reaches 2000 fold or more?
Output: Condition met

Input: Would you say `O=S(=O)(CCN1CC(O)C1)N(Cc1ccc(-c2nnc(C(F)F)o2)cc1)c1ccccc1` shows HDAC6 selectivity (fold) at minimum 2000 fold?
Output: Condition not met

Input: Is HDAC6 selectivity (fold) at least 2000 fold? Consider `O=S(=O)(CCCN1CCCC1)N(Cc1ccc(-c2nnc(C(F)F)o2)cc1)c1ccc(F)c(Cl)c1`
Output: Condition not met

Input: Determine whether measured HDAC6 selectivity (fold) meets or exceeds 2000 fold for `O=S(=O)(CCCN1CCOCC1)N(Cc1ccc(-c2nnc(C(F)F)o2)cn1)c1ccccc1`
Output: Condition not met

Input: Reported HDAC6 selectivity (fold) at or above 2000 fold? `O=S(=O)(c1cccnc1)N(Cc1ccc(-c2nnc(C(F)F)o2)cc1)c1cccc(F)c1`
Output: Condition met

Input: Hi, just wondering whether `NC(=O)[C@H]1CCCN1CCS(=O)(=O)N(Cc1ccc(-c2nnc(C(F)F)o2)cc1)c1ccccc1` shows HDAC6 selectivity (fold) of 2000 fold or higher.
Output: Condition met

Input: Given the entry `CS(=O)(=O)N(Cc1ccc(-c2nnc(C(F)F)o2)cc1)c1ccc(Br)cn1` , answer whether its HDAC6 selectivity (fold) meets or surpasses 2000 fold.
Output: Condition not met

Input: Could you tell me if the measured HDAC6 selectivity (fold) of `CN(C)CCCS(=O)(=O)N(Cc1ccc(-c2nnc(C(F)F)o2)cc1)c1ccccc1` reaches 2000 fold or more?
Output: Condition met

Input: Check the entry `CS(=O)(=O)N(Cc1ccc(-c2nnc(C(F)F)o2)cc1F)c1cccc(F)c1` : does HDAC6 selectivity (fold) equal or exceed 2000 fold?
Output: Condition met

Input: Does the molecule `NC(=O)[C@@H]1CCCN1CCS(=O)(=O)N(Cc1ccc(-c2nnc(C(F)F)o2)cn1)c1ccccc1` have recorded HDAC6 selectivity (fold) that is 2000 fold or more?
Output: Condition not met

Input: Does `CS(=O)(=O)N(Cc1ccc(-c2nnc(C(F)F)o2)cc1F)[C@H]1CCc2ccccc21` have a reported HDAC6 selectivity (fold) of at least 2000 fold?
Output: Condition not met

Input: Form field: HDAC6 selectivity (fold) at least 2000 fold? Entry: `O=S1(=O)CCC(S(=O)(=O)N(Cc2ccc(-c3nnc(C(F)(F)F)o3)cc2F)c2cccc(F)c2)CC1`
Output: Condition met

Input: HDAC6 selectivity (fold) >= 2000 fold for `CS(=O)(=O)N(Cc1ccc(-c2nnc(C(F)(F)F)o2)cc1F)c1ccccc1` ?
Output: Condition not met

Input: For this molecule, is measured HDAC6 selectivity (fold) 2000 fold or higher? `CS(=O)(=O)N(Cc1ccc(-c2nnc(C(F)F)o2)cc1F)c1ccc(Br)cc1`
Output: Condition not met

Input: Is HDAC6 selectivity (fold) for `O=S(=O)(C1CCN([C@H]2CC[C@@H](F)CC2)CC1)N(Cc1ccc(-c2nnc(C(F)F)o2)cc1)c1cccc(Cl)c1` at or above 2000 fold?
Output: Condition not met

Input: Dear colleague, could you confirm whether `CS(=O)(=O)N(Cc1ccc(-c2nnc(C(F)F)o2)cc1F)C1CCCCC1` has HDAC6 selectivity (fold) at or above 2000 fold?
Output: Condition not met

Input: Is it the case that `O=C(C1CC1)N1CCN(CCS(=O)(=O)N(Cc2ccc(-c3nnc(C(F)F)o3)cc2)c2ccccc2)CC1` has HDAC6 selectivity (fold) reaching or exceeding 2000 fold?
Output: Condition not met

Input: Hello, I need to know if `CCS(=O)(=O)N(Cc1ccc(-c2nnc(C(F)F)o2)cc1F)c1ccccc1` has measured HDAC6 selectivity (fold) not below 2000 fold. Thanks!
Output: Condition met

Input: Does `O=S(=O)(c1cccnc1)N(Cc1ccc(-c2nnc(C(F)F)o2)cc1F)c1cccc(F)c1` have a reported HDAC6 selectivity (fold) of at least 2000 fold?
Output: Condition met
